# target.of.assay: Phosphatidylinositol 3-kinase regulatory subunit alpha/4,5-bisphosphate 3-kinase catalytic subunit delta isoform (Homo sapiens, UniProt P27986+O00329)
# Sequence (P27986 whole entry, canonical isoform): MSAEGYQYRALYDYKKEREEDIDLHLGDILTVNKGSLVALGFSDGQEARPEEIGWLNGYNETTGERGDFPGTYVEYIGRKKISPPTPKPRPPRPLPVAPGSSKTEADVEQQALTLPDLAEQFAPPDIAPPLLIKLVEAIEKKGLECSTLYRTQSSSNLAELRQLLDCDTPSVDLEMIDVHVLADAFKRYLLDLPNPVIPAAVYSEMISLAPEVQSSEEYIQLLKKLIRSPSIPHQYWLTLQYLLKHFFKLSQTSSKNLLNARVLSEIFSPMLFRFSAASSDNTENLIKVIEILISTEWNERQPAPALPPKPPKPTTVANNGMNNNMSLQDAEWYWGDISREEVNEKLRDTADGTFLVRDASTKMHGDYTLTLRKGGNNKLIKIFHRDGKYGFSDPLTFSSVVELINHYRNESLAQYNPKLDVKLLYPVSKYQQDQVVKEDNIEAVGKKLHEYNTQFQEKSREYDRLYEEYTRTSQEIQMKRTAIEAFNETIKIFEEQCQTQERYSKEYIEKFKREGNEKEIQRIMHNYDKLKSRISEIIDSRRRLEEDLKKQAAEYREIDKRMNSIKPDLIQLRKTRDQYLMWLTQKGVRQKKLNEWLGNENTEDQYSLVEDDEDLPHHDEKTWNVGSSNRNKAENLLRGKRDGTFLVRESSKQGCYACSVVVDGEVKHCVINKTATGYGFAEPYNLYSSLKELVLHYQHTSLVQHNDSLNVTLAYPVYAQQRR
# Sequence (O00329 whole entry, canonical isoform): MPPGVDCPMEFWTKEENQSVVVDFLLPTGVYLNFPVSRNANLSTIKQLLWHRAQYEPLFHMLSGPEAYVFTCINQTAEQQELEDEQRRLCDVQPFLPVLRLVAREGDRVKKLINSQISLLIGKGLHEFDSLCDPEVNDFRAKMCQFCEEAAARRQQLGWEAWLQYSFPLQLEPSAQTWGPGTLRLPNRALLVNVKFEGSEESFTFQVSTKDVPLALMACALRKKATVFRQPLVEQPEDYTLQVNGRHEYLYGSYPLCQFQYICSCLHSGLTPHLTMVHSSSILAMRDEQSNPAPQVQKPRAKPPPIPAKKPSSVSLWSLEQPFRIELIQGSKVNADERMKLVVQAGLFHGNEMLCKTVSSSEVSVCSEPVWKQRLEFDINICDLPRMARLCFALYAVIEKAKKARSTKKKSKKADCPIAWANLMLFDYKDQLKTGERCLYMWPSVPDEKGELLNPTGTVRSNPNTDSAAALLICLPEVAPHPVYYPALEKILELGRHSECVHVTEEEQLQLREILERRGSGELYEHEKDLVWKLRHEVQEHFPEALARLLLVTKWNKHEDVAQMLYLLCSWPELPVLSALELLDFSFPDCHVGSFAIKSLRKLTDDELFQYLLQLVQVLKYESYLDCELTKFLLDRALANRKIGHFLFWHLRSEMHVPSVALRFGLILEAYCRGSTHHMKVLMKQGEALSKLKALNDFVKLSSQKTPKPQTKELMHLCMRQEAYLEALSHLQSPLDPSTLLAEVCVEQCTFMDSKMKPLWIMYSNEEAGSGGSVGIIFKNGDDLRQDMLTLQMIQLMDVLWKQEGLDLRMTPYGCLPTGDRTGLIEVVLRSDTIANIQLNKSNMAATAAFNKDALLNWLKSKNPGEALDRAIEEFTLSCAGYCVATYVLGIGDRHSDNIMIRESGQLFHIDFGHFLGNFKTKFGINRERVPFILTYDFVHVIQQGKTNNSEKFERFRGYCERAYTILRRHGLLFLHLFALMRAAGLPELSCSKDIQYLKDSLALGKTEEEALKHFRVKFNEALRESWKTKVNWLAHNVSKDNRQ
# test: Inhibition of human full length PI3K p110delta/p85alpha using phosphatidylinositol […] as substrate measured after 30 mins by TR-FRET assay
Items are presented alongside their recorded IC50.
Give me the value, and tack the unit on after it.

# annotated cases, reported IC50 shown
compound="C[C@H](Nc1nc(N)nc(N)c1C#N)c1nc2c(F)ccc(Cl)c2c(=O)n1-c1cccnc1 [US9221795, 24]" assay_metric=IC50 endpoint_result="0.4 nM"
compound="C[C@H](Nc1nc(N)nc(N)c1C#N)c1nc2cccc(Cl)c2c(=O)n1-c1cccnc1 [US9221795, 1]" assay_metric=IC50 endpoint_result="0.6 nM"
compound="C[C@H](Nc1nc(N)nc(N)c1C#N)c1nc2cccc(Cl)c2c(=O)n1-c1cncc(C2CC2)c1 [US9221795, 19]" assay_metric=IC50 endpoint_result="5 nM"
compound="C[C@H](Nc1nc(N)nc(N)c1C#N)c1nc2c(F)ccc(F)c2c(=O)n1-c1cccnc1 [US9221795, 25]" assay_metric=IC50 endpoint_result="8 nM"

# input for lookup
Query block: Data request, read-out IC50, for COc1cncc(-n2c([C@H](C)Nc3nc(N)nc(N)c3C#N)nc3cccc(Cl)c3c2=O)c1 [US9221795, 14]
Result block: 4 nM

Every entry's value here was drawn from BindingDB's records for doi:10.1021/acs.jmedchem.6b01169.
